Overview of recorded viability at 10 µM for various compounds
- System: PC-3
- Protocol Notes: MTT test, PC-3
- Type: cell-based
- Condition Summary: Homo sapiens, 10^−5 M, 72 hours, control = 100%, mean ± SEM, read-out: average optical density (MTT), percentage relative to control
- Protocol: The influence of the compounds of formulae (I) and (Ia) on non-clonogenic cells was evaluated with the aid of the MTT calorimetric test. The principle of the MTT test is based on the mitochondrial reduction, by the metabolically active live cells, of the yellow-colored product MTT (3-(4,5-dimethylthiazol-2-yl)-2,5-diphenyltetrazolium bromide) to a blue-colored product, formazan. […] This amount of formazan is measured by spectrophotometry. […]
Metric Name: viability at 10 µM

>  <Compound>
COc1ccc(-c2cc3c(OC)cc(OC)cc3nc2S)cc1 [CRL8271]

>  <Metric Name>
viability at 10 µM

>  <Reported Value>
107%

$$$$
>  <Compound>
COc1cc(OC)c2cc(-c3ccccc3)c(O)nc2c1 [CRL8330]

>  <Metric Name>
viability at 10 µM

>  <Reported Value>
48.5%

$$$$
>  <Compound>
COc1cccc2cc(-c3ccccc3)c(O)nc12 [CRL8339]

>  <Metric Name>
viability at 10 µM

>  <Reported Value>
84.3%

$$$$
>  <Compound>
COc1ccc(-c2cc3c(OC)cc(OC)cc3n(CCCN(C)C)c2=O)cc1 [CRL8254]

>  <Metric Name>
viability at 10 µM

>  <Reported Value>
97.9%

$$$$
>  <Compound>
COc1ccc(-c2cc3c(OC)cc(OC)cc3n(C)/c2=N\Nc2ccccn2)cc1 [CRL8266]

>  <Metric Name>
viability at 10 µM

>  <Reported Value>
67.2%

$$$$
>  <Compound>
CCN(CC)C(=O)CCn1c(=O)c(-c2ccc(OC)cc2)cc2c(OC)cc(OC)cc21 [CRL8283]

>  <Metric Name>
viability at 10 µM

>  <Reported Value>
92.4%

$$$$
>  <Compound>
Cn1c(=O)c(-c2ccc(O)cc2)cc2c(O)cc(O)cc21 [CRL8321]

>  <Metric Name>
viability at 10 µM

>  <Reported Value>
102%

$$$$
>  <Compound>
Oc1ccc(-c2cc3c(O)cc(O)cc3nc2O)cc1 [CRL8311]

>  <Metric Name>
viability at 10 µM

>  <Reported Value>
122%

$$$$
>  <Compound>
COc1ccc(-c2cc3c(OC)ccc(OC)c3nc2O)cc1 [CRL8336]

>  <Metric Name>
viability at 10 µM

>  <Reported Value>
91.7%

$$$$
>  <Compound>
COc1ccc(-c2cc3c(OC)cc(OC)cc3[nH]c2=O)cc1 [CRL8246]

>  <Metric Name>
viability at 10 µM

>  <Reported Value>
122%

$$$$
>  <Compound>
CCOC(=O)Cn1c(=O)c(-c2ccc(OC)cc2)cc2c(OC)cc(OC)cc21 [CRL8314]

>  <Metric Name>
viability at 10 µM

>  <Reported Value>
88.6%

$$$$
>  <Compound>
CCN(CC)C(=O)Cn1c(=O)c(-c2ccc(OC)cc2)cc2c(OC)cc(OC)cc21 [CRL8315]

>  <Metric Name>
viability at 10 µM

>  <Reported Value>
93.6%

$$$$
>  <Compound>
COc1ccc(-c2cc3c(OC)cc(OC)cc3n(CC(=O)O)c2=O)cc1 [CRL8317]

>  <Metric Name>
viability at 10 µM

>  <Reported Value>
97.9%

$$$$
>  <Compound>
COc1ccc(-c2cc3c(OC)cc(OC)c4c3n(c2=O)CCC4=O)cc1 [CRL8285]

>  <Metric Name>
viability at 10 µM

>  <Reported Value>
93.4%

$$$$
>  <Compound>
COC(=O)CCn1c(=O)c(-c2ccc(OC)cc2)cc2c(OC)cc(OC)cc21 [CRL8318]

>  <Metric Name>
viability at 10 µM

>  <Reported Value>
79.2%

$$$$
>  <Compound>
COc1ccc(-c2cc3c(OC)cc(OC)cc3n(CCC(=O)O)c2=O)cc1 [CRL8319]

>  <Metric Name>
viability at 10 µM

>  <Reported Value>
90.7%

$$$$
>  <Compound>
COc1ccc(-c2cc3c(OC)cc(OC)cc3n(CCN(C)C)c2=O)cc1 [CRL8316]

>  <Metric Name>
viability at 10 µM

>  <Reported Value>
84.8%

$$$$
>  <Compound>
COc1ccc(-c2cc3c(OC)cc(OC)cc3n(C)c2=S)cc1 [CRL8245]

>  <Metric Name>
viability at 10 µM

>  <Reported Value>
74.4%

$$$$
>  <Compound>
COc1ccc(-c2cc3c(OC)cc(OC)cc3n(C)c2=O)cc1 [CRL8244]

>  <Metric Name>
viability at 10 µM

>  <Reported Value>
83.2%

$$$$
>  <Compound>
COc1ccc(-c2cc3c(OC)cc(OC)cc3n(CCC#N)c2=O)cc1 [CRL8247]

>  <Metric Name>
viability at 10 µM

>  <Reported Value>
70.5%

$$$$
>  <Compound>
COc1ccc(-c2cc3c(OC)cc(OC)cc3n(CC#N)c2=O)cc1 [CRL8255]

>  <Metric Name>
viability at 10 µM

>  <Reported Value>
77.7%

$$$$
>  <Compound>
COc1cc(OC)c2cc(-c3ccc(O)cc3)c(O)nc2c1 [CRL8284]

>  <Metric Name>
viability at 10 µM

>  <Reported Value>
83.8%

$$$$
>  <Compound>
COc1ccc(-c2cc3c(OC)cc(OC)cc3n(CCc3nnn[nH]3)c2=O)cc1 [CRL8256]

>  <Metric Name>
viability at 10 µM

>  <Reported Value>
86%

$$$$
>  <Compound>
COc1ccc(-c2cc3c(OC)cc(OC)cc3n(C)/c2=N\Nc2ccccc2)cc1 [CRL8270]

>  <Metric Name>
viability at 10 µM

>  <Reported Value>
49.4%

$$$$
